From: paper PMC3340383

target: serotonin 5-HT2A receptor (Rattus norvegicus, UniProt P14842); construct: Rat cerebral cortex was homogenized in 20 volumes of ice-cold Tris-HCl buffer; from tissue; host or cells: rat brain (cerebral) cortex; assay: 5-HT2A binding assay ([3H]ketanserin, rat brain cortex); settings: read-out: Ki±SEM, 5HT2A
Sequence (P14842 whole entry): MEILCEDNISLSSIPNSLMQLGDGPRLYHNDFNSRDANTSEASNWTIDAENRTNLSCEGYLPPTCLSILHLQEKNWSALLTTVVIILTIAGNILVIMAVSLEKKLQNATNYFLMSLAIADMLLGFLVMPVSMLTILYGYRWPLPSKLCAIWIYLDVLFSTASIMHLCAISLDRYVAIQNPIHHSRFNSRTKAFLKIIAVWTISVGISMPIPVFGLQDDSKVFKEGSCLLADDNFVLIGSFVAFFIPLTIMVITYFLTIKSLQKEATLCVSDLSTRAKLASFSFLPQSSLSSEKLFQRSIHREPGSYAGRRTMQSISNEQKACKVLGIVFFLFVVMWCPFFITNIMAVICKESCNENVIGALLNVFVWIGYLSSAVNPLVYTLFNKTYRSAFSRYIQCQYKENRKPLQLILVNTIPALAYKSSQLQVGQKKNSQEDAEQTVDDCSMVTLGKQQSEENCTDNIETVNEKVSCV
// reported Ki for each item listed

>  <compound>
FC(F)(F)c1cccc(N2CCN(CCCSc3nnc(-c4ccccc4)o3)CC2)c1 [Compound 10]

>  <target.under.test>
serotonin 5-HT2A receptor (Rattus norvegicus, UniProt P14842)

>  <Ki>
> 10 µM

$$$$
>  <compound>
COc1ccccc1N1CCN(CCCSc2nnc(-c3ccccc3)o2)CC1 [Compound 8]

>  <target.under.test>
serotonin 5-HT2A receptor (Rattus norvegicus, UniProt P14842)

>  <Ki>
> 10 µM

$$$$
>  <compound>
Clc1cccc(N2CCN(CCCSc3nnc(-c4ccccc4)o3)CC2)c1Cl [Compound 9]

>  <target.under.test>
serotonin 5-HT2A receptor (Rattus norvegicus, UniProt P14842)

>  <Ki>
> 10 µM

$$$$

----------
molecular target: serotonin 5-HT1A receptor (Rattus norvegicus); construct: Rat cerebral cortex was homogenized in 20 volumes of ice-cold Tris-HCl buffer; from tissue; host or cells: rat brain (cerebral) cortex; assay: 5-HT1A binding assay ([3H]8-OH-DPAT, rat brain cortex); conditions: [3H]8-OH-DPAT, rat brain cortex; mean of three experiments; >10000 marked b: Ki not calculated, inhibition at 10 µM too low; read-out: Ki±SEM, 5HT1A
Sequence (P19327 whole entry): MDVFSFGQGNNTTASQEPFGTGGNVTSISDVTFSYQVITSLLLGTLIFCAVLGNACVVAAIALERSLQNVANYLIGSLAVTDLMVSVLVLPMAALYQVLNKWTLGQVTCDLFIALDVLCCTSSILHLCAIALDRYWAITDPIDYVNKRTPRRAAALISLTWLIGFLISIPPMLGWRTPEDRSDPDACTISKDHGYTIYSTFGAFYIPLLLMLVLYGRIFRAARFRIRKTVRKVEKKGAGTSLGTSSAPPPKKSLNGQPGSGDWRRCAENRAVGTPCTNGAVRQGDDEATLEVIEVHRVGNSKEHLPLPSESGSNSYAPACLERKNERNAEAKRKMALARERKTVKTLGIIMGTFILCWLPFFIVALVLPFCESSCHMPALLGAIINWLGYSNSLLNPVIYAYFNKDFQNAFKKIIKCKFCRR
// reported Ki for each item listed
measured.parameter: Ki (nM)

>  <smiles.representation>
Fc1ccc2c(C3CCN(CCCSc4nnc(-c5cccc6ccccc56)o4)CC3)noc2c1

>  <measured.parameter>
Ki

>  <unit.spec>
nM

>  <value.comparator>
=

>  <endpoint.result>
4.6

$$$$
>  <smiles.representation>
c1csc(-c2nnc(SCCCN3CCN(c4nsc5ccccc45)CC3)o2)c1

>  <measured.parameter>
Ki

>  <unit.spec>
nM

>  <value.comparator>
=

>  <endpoint.result>
450

$$$$
>  <smiles.representation>
Clc1ccc(-c2nnc(SCCCN3CCN(c4nsc5ccccc45)CC3)o2)cc1

>  <measured.parameter>
Ki

>  <unit.spec>
nM

>  <value.comparator>
=

>  <endpoint.result>
14.2

$$$$
>  <smiles.representation>
COc1ccc(-c2nnc(SCCCN3CCN(c4nsc5ccccc45)CC3)o2)cc1

>  <measured.parameter>
Ki

>  <unit.spec>
nM

>  <value.comparator>
>

>  <endpoint.result>
10000

$$$$
>  <smiles.representation>
Fc1ccc(-c2nnc(SCCCN3CCN(c4nsc5ccccc45)CC3)o2)cc1

>  <measured.parameter>
Ki

>  <unit.spec>
nM

>  <value.comparator>
>

>  <endpoint.result>
10000

$$$$
